Assay Target: ERBB2 (V777L) (Homo sapiens, UniProt P04626, V777L)
Sequence (P04626 23-1255 V777L): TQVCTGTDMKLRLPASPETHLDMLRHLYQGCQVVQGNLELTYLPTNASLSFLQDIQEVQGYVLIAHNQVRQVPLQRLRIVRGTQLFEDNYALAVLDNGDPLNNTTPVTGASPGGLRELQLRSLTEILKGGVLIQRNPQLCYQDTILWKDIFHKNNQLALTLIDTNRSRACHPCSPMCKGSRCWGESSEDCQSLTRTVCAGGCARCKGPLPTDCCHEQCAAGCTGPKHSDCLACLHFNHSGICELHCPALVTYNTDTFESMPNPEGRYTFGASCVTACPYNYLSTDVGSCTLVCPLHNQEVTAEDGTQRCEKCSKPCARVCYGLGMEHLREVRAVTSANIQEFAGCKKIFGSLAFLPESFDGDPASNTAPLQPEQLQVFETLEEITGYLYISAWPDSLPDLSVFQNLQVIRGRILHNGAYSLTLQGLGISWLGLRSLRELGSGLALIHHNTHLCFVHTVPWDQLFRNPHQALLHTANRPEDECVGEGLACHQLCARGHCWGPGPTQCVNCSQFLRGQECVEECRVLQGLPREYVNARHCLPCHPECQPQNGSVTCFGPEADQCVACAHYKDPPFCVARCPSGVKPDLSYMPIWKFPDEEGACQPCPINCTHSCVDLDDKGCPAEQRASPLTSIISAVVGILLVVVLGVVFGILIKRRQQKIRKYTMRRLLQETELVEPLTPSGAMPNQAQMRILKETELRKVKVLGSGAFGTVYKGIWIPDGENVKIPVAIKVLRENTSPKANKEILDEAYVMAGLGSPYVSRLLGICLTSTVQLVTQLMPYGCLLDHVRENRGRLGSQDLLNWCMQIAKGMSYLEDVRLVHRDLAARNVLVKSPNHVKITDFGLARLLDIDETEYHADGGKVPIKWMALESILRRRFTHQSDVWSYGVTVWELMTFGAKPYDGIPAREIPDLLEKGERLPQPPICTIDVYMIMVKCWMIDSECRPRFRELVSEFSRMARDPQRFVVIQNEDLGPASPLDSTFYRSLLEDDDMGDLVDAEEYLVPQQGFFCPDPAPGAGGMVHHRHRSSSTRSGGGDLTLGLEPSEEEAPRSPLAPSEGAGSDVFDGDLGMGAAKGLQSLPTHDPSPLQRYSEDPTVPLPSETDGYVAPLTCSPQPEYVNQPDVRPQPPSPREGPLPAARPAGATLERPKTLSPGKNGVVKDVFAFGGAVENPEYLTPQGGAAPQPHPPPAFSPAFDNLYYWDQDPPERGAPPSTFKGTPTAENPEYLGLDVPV
Procedure Summary: Kinase spectrum evaluation, radiometric 33P-ATP kinase assay
Condition Set: room temperature 2 h, 10 concentration gradients
Measured Property: IC50 (nM)

{"Molecule": "C=CC(=O)Nc1cccc(-n2c(=O)c(-c3ccccc3)nc3cnc(Nc4ccc(N5CCN(C)CC5)c(OC)c4)nc32)c1 [compound B]", "Value Units": "nM", "IC50": 2.05}

[1] C=CC(=O)Nc1cccc(-n2c(=O)c(-c3ccccc3)nc3cnc(Nc4ccc(N5CCN(C)CC5)cc4OC)nc32)c1 [Compound 1]
[2] C=CC(=O)N1CCC(Oc2cc3c(Nc4ccc(Cl)c(Cl)c4F)ncnc3cc2OC)CC1 [Poziotinib]
Problem: Which shows the larger IC50 value: 1 or 2 ? Label of pick, please.
Solution: 1

====

Assay Target: EGFR (A763_Y764insFQEA) (Homo sapiens, UniProt P00533, INS763FQEA)
Sequence (P00533 with tags, fused parts or gaps INS763FQEA limits assumed): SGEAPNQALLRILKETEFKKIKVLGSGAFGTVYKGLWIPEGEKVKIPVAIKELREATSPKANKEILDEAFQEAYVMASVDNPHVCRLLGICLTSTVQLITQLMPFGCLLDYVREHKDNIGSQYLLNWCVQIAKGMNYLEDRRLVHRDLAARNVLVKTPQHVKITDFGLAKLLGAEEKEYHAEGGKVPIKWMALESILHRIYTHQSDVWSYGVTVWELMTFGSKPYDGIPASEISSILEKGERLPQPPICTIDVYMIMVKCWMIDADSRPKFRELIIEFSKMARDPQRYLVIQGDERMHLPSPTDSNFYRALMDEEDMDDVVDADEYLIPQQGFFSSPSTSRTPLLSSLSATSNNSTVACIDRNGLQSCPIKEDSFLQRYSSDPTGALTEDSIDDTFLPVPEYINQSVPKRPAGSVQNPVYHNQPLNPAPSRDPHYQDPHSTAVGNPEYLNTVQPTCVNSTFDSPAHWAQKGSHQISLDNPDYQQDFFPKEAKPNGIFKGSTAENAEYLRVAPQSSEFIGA
Procedure Summary: Kinase spectrum evaluation, radiometric 33P-ATP kinase assay
Condition Set: room temperature 2 h, 10 concentration gradients
Measured Property: IC50 (nM)

{"Smi": "C=CC(=O)Nc1cccc(-n2c(=O)c(-c3ccccc3)nc3cnc(Nc4ccc(N5CCN(C)CC5)cc4OC)nc32)c1", "Assay Target": "EGFR (A763_Y764insFQEA) (Homo sapiens, UniProt P00533, INS763FQEA)", "Value Units": "nM", "Reported Value": 0.29}
{"Smi": "C=CC(=O)Nc1cccc(-n2c(=O)c(-c3ccccc3)nc3cnc(Nc4ccc(N(C)CCN(C)C)cc4OC)nc32)c1", "Assay Target": "EGFR (A763_Y764insFQEA) (Homo sapiens, UniProt P00533, INS763FQEA)", "Value Units": "nM", "Reported Value": 0.35}
{"Smi": "C=CC(=O)Nc1cccc(-n2c(=O)c(-c3ccc(OC)cc3)nc3cnc(Nc4ccc(N5CCN(C)CC5)cc4OC)nc32)c1", "Assay Target": "EGFR (A763_Y764insFQEA) (Homo sapiens, UniProt P00533, INS763FQEA)", "Value Units": "nM", "Reported Value": 2.37}
{"Smi": "C=CC(=O)Nc1cccc(-n2c(=O)c(-c3ccccc3)nc3cnc(Nc4ccc(N5CCN(C)CC5)c(OC)c4)nc32)c1", "Assay Target": "EGFR (A763_Y764insFQEA) (Homo sapiens, UniProt P00533, INS763FQEA)", "Value Units": "nM", "Reported Value": 0.78}

[I] C=CC(=O)Nc1cccc(-n2c(=O)c(C3CCCCC3)nc3cnc(Nc4ccc(N5CCN(C)CC5)cc4OC)nc32)c1
[II] C=CC(=O)Nc1cccc(-n2c(=O)c(-c3ccc(F)cc3)nc3cnc(Nc4ccc(N5CCN(C)CC5)cc4OC)nc32)c1
Problem: Determine, for I and II , which has the greater value of IC50. Write down the label of the entry you select.
Solution: II
(II: 1.92 nM, I: 0.45 nM)

====

Assay Target: EGFR (D770_N771insNPG/T790M) (Homo sapiens, UniProt P00533, INS770NPG/T790M)
Construct: purchased Reaction Biology Corporation (commissioned test)
Sequence (P00533 with tags, fused parts or gaps INS770NPG/T790M limits assumed): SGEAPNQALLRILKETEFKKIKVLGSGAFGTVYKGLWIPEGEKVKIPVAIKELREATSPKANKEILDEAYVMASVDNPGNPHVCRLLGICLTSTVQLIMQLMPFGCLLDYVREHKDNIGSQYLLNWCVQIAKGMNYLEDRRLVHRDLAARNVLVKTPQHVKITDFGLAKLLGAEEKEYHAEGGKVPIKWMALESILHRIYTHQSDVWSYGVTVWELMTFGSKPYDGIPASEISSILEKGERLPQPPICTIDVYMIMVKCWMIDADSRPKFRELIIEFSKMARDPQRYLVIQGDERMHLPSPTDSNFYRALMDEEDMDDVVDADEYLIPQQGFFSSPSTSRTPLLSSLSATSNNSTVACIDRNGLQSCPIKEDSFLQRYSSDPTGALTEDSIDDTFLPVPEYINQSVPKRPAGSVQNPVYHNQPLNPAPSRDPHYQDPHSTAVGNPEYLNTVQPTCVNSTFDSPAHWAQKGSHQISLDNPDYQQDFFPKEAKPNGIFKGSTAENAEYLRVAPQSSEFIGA
Procedure Summary: Kinase spectrum evaluation, radiometric 33P-ATP kinase assay
Type: biochemical
Condition Set: room temperature 2 h, 10 concentration gradients
Measured Property: IC50 (nM)

Use the examples below as a reference point.
{"Compound": "C=CC(=O)Nc1cccc(-n2c(=O)c(-c3ccccc3)nc3cnc(Nc4ccc(N(C)CCN(C)C)cc4OC)nc32)c1 [compound A]", "IC50, nM": 0.67}
{"Compound": "C=CC(=O)Nc1cccc(-n2c(=O)c(-c3ccccc3)nc3cnc(Nc4ccc(N5CCN(C)CC5)c(OC)c4)nc32)c1 [compound B]", "IC50, nM": 1.89}

[A] C=CC(=O)Nc1cccc(-n2c(=O)c(C3CCCCC3)nc3cnc(Nc4ccc(N5CCN(C)CC5)cc4OC)nc32)c1 [compound C]
[B] C=CC(=O)Nc1cccc(-n2c(=O)c(-c3ccc(OC)cc3)nc3cnc(Nc4ccc(N5CCN(C)CC5)cc4OC)nc32)c1 [compound E]
[C] C=CC(=O)Nc1cccc(-n2c(=O)c(-c3ccccc3)nc3cnc(Nc4ccc(N5CCN(C)CC5)cc4OC)nc32)c1 [Compound 1]
[D] C=CC(=O)Nc1cccc(-n2c(=O)c(-c3ccc(F)cc3)nc3cnc(Nc4ccc(N5CCN(C)CC5)cc4OC)nc32)c1 [compound D]
Problem: # rank_down: sort by IC50, max first Lab note: final answer is the ordered label list.
Solution: A, B, D, C
